Ref: patent US12422443B2

assay: Ultraviolet absorption and fluorescence emission in dichloromethane; type: physicochemical; details: 10 μM in dichloromethane
maximum absorption listing for selected compounds.
The reply should be a number in nm, with the unit left off.

INSERT INTO results (smiles_structure, numeric_value) VALUES
  ('CCN(CC)c1ccc2c(c1)oc(=O)c1cc3ccc4ccccc4c3nc12', 375),
  ('CCN(CC)c1ccc2c(c1)oc(=O)c1cc3c(ccc4nc5c(cc43)c(=O)oc3cc(N(CC)CC)ccc35)nc12', 429),
  ('CCN(CC)c1ccc2nc3c(cc2c1)c(=O)oc1cc(N(CC)CC)ccc13', 473);

If you can, please state the reported maximum absorption value of CCN(CC)c1ccc2nc3c(cc2c1)c(=O)oc1ccccc13 . 452
